# test.system: T1, DLG3_3, Q92796
# T1 sequence (Q92796 374-475, limits assumed, looked up): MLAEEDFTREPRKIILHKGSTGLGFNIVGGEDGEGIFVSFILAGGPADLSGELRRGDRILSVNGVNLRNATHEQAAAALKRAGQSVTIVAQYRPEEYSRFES
# experiment: holdup assay
# Design: key: below the threshold = too weak to quantify, mostly under pKd 3.1 to 4
# applied.conditions: plain residues with an end cap or a label only (N-terminal biotin on a linker: ado-ado)
Would you kindly list pKd for each of these binders?
Hey, just send me the number, nothing else.

// field: pKd; key: PKRSFIESNV [TANC1, Q9C0D5] ; value = 4.23

// field: pKd; key: KSGKQTMLVV [TRIM29, Q14134] ; value = 3.81

// field: pKd; key: SAKVRTVTSV [RASL11B, Q9BPW5] ; value = 4.89
